Would you mind telling me the reported pIC50 of each entry?
The read-out pIC50 is expressed as -log10 of concentration in moles per litre.

Notebook: pull reported pIC50 for GSK 3α (Homo sapiens (Human)), entry COCCOCCOCCOc1cc(Nc2nccc(Oc3ccc(NC(=O)Nc4cc(C(C)(C)C)cc(C(=O)NCc5ccccc5)c4OC)c4ccccc34)n2)cc(OC)c1 [Example 38]
4.97

Notebook: pull reported pIC50 for GSK 3α (Homo sapiens (Human)), entry COCCOCCOCCOc1cc(Nc2cc(Oc3ccc(NC(=O)Nc4cc(C(C)(C)C)cc(C(=O)NCCN(C)C)c4OC)c4ccccc34)ccn2)cc(OC)c1 [Example 76]
5.32

Notebook: pull reported pIC50 for GSK 3α (Homo sapiens (Human)), entry C#Cc1cc(Nc2cc(Oc3ccc(NC(=O)Nc4cc(NS(C)(=O)=O)cc(C(C)(C)C)c4)c4ccccc34)ccn2)cc(C(=O)NCCN2CCOCC2)c1 [Example 65]
5.13

Notebook: pull reported pIC50 for GSK 3α (Homo sapiens (Human)), entry COc1cccc(Nc2cc(Oc3ccc(NC(=O)Nc4cc(C(C)(C)C)cc(C(=O)NC5COC5)c4OC)c4ccccc34)ccn2)c1 [Example 81]
5.31

Notebook: pull reported pIC50 for GSK 3α (Homo sapiens (Human)), entry COc1cc(CO)cc(Nc2cc(Oc3ccc(NC(=O)Nc4cc(C(C)(C)C)cc(NS(C)(=O)=O)c4OC)c4ccccc34)ccn2)c1 [84(f)]
5.47

Notebook: pull reported pIC50 for GSK 3α (Homo sapiens (Human)), entry COCCOCCOCCOc1cc(Nc2cc(Oc3ccc(NC(=O)Nc4cc(C(C)(C)C)cc(C(=O)NCCN)c4OC)c4ccccc34)ccn2)cc(OC)c1 [83(g)]
5.66

* * *

molecular target: GSK 3α (Homo sapiens (Human), UniProt P49840)
Sequence (P49840 whole entry): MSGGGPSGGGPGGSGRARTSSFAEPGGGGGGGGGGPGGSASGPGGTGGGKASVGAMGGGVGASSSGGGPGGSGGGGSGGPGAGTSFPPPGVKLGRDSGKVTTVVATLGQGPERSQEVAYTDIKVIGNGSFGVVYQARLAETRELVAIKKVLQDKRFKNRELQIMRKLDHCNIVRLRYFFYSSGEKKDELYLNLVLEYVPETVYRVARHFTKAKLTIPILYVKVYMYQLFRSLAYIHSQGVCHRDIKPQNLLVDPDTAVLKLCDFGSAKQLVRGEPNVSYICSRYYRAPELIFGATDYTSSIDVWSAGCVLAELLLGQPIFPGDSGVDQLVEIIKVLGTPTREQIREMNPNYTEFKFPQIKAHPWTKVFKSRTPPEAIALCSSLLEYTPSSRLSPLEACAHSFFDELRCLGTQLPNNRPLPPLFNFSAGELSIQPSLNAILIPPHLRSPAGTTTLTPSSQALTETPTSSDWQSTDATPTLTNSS
Would you mind telling me the reported IC50 of each entry?
Give your result in nM as a bare value.

Look up IC50: COc1c(NC(=O)Nc2ccc(Oc3ccnc(Nc4ccccc4)c3)c3ccccc23)cc(C(C)(C)C)cc1C(=O)NC1CCN(C)CC1
4510

Look up IC50: C#Cc1cc(Nc2nccc(Oc3ccc(NC(=O)Nc4cc(C(C)(C)C)cc(C(=O)NC)c4OC)c4ccccc34)n2)cc(C(=O)N[C@@H](C)CN2CCOCC2)c1
539

Look up IC50: COc1cc(Nc2nccc(Oc3ccc(NC(=O)Nc4cc(C(C)(C)C)cc(NS(C)(=O)=O)c4OC)c4ccccc34)n2)cc(C(=O)NCCN2CCN(C)CC2)c1 [Example 85(e)]
300

* * *

Would you mind telling me the reported concentration at 2 h of each entry?
assay: Plasma pharmacokinetics and total colon tissue distribution in mice, single oral administration; type: in vivo, mouse (male C57BL/6); settings: male, C57BL/6, mouse, total colon, 5 mg/kg, read-out: Median total colon concentration
Number first, unit second: that is the form wanted.

Look up concentration at 2 h: COc1c(NC(=O)Nc2ccc(Oc3ccnc(Nc4ccccc4)c3)c3ccccc23)cc(C(C)(C)C)cc1C(=O)NC1COC1
56.2 ng/g

Look up concentration at 2 h: COCCOCCOCCNC(=O)c1cc(Nc2cc(Oc3ccc(NC(=O)Nc4cc(C(C)(C)C)cc(NS(C)(=O)=O)c4OC)c4ccccc34)ccn2)cc(OC)c1
274 ng/g

* * *

Would you mind telling me the reported Vd of each entry?
assay: Plasma pharmacokinetics in rats, single intravenous or oral administration; assay type: in vivo, rat (male Wistar); details: male, Wistar, rat, plasma; rats, intravenous 0.25 mg/kg; read-out: Vss
Give your result in L/kg as a bare value.

Look up Vd: CNC(=O)c1cc(C(C)(C)C)cc(NC(=O)Nc2ccc(Oc3ccnc(Nc4cc(OC)cc(OCCOCCOCCOC)c4)c3)c3ccccc23)c1OC
0.3

Look up Vd: COCCOCCOCCOc1cc(Nc2nccc(Oc3ccc(NC(=O)Nc4cc(C(C)(C)C)cc(NS(C)(=O)=O)c4OC)c4ccccc34)n2)cc(OC)c1
0.2

Look up Vd: COc1c(NC(=O)Nc2ccc(Oc3ccnc(Nc4ccccc4)c3)c3ccccc23)cc(C(C)(C)C)cc1C(=O)NC1COC1
0.1

Look up Vd: COc1cc(Nc2cc(Oc3ccc(NC(=O)Nc4cc(C(C)(C)C)cc(NS(C)(=O)=O)c4OC)c4ccccc34)ccn2)cc(C(=O)NCCN2CCOCC2)c1
0.1

Look up Vd: COCCOCCOCCNC(=O)c1cc(Nc2cc(Oc3ccc(NC(=O)Nc4cc(C(C)(C)C)cc(NS(C)(=O)=O)c4OC)c4ccccc34)ccn2)cc(OC)c1
0.1

Every entry's value here was drawn from patent US9481648B2.
